biological target: JNK1-dc20 (JNK1 where the C-terminal 20 residues are truncated) (human) (UniProt P45983); experiment: fluorescence polarisation; competitive titration: JNK1 with CF-evJIP (50 nM; JNK1 at ~60-80% complex formation) titrated with unlabeled MBP-ATF2(19-100) constructs; data fit to a competition binding equation; 20 mM Tris pH 8.0, 100 mM NaCl, 0.05% Brij35P, 2 mM TCEP
pKd: −log10 of the molar value.
The entries below are paired with their reported pKd.
measured-property: pKd

MBP-ATF2-(19-100)-H47R (domain or fragment) MSDDKPFLCTAPGCGQRFTNEDHLAVHKRKHEMTLKFGPARNDSVIVADQTPTPTRFLKNCEEVGLFNELASPFENEFKKAS ... 6.59
MBP-ATF2-(19-100)-Q34R/H47R (domain or fragment) MSDDKPFLCTAPGCGRRFTNEDHLAVHKRKHEMTLKFGPARNDSVIVADQTPTPTRFLKNCEEVGLFNELASPFENEFKKAS ... 7.30
MBP-ATF2(19-100)-WT (domain or fragment) MSDDKPFLCTAPGCGQRFTNEDHLAVHKHKHEMTLKFGPARNDSVIVADQTPTPTRFLKNCEEVGLFNELASPFENEFKKAS ... 5.46
MBP-ATF2-(19-100)-H47E (domain or fragment) MSDDKPFLCTAPGCGQRFTNEDHLAVHKEKHEMTLKFGPARNDSVIVADQTPTPTRFLKNCEEVGLFNELASPFENEFKKAS ... 4.41
MBP-ATF2-(19-100)-Q34R (domain or fragment) MSDDKPFLCTAPGCGRRFTNEDHLAVHKHKHEMTLKFGPARNDSVIVADQTPTPTRFLKNCEEVGLFNELASPFENEFKKAS ... 6.06
MBP-ATF2-(19-100)-V44A (domain or fragment) MSDDKPFLCTAPGCGQRFTNEDHLAAHKHKHEMTLKFGPARNDSVIVADQTPTPTRFLKNCEEVGLFNELASPFENEFKKAS ... 4.81
MBP-ATF2-(19-100)-V44E (domain or fragment) MSDDKPFLCTAPGCGQRFTNEDHLAEHKHKHEMTLKFGPARNDSVIVADQTPTPTRFLKNCEEVGLFNELASPFENEFKKAS ... 4.25
